ASSAY_PROCEDURE: Quantitative High-Throughput drug screen in 47 multiple myeloma cell lines against the NCATS MIPE library collection: ARP1_JJKsccF8 cell viability assay (AID 1918928; further: nearly all actives have a fitted effect of over 40% in size)
ASSAY_CONTEXT: ARP1 myeloma cells viability, CellTiter-Glo ATP, 48 h; series mostly up to 45.8 µM
Excerpt: PI: Beverly A. Mock Ph.D. Laboratory of Cancer Biology and Genetics, Center for Cancer Research, National Cancer Institute, National Institute of Health, Bethesda, Maryland […] 5; Detector; 425V; Luminescence; Viewlux PerkinElmer. […] 1. […] Briefly, the corresponding myeloma cell lines were screened in 1,536-well plates with 500 cells, 5-uL per well for inhibition of cell viability (assessed by measuring ATP levels with CellTiterGlo). […]
Inconclusive results are not listed. The source made the active and inactive calls. The call rests on the fitted dose curve; in most records, active means well fitted cell-killing curve with a large enough effect; inconclusive means small, poorly fitted or top-dose-only effect, or effect the other way; inactive means no such curve, though single readings can be large or run the other way.
Write down the outcome that applies. Available outcomes: active, inactive

Consider the worked cases shown below.
COMPOUND	ASSIGNED_LABEL
C[C@@H]1CC=CC=CC=CC=C[C@@H](O[C@@H]2O[C@H](C)[C@@H](O)[C@H](N)[C@H]2O)C[C@@H]2O[C@](O)(C[C@@H](O)C[C@@H]3O[C@@H]3C=CC(=O)O1)C[C@H](O)[C@@H]2C(=O)O	active
O=c1cc(-c2ccc(O)c(O)c2)oc2cc(O)cc(O)c12	inactive

Incoming: Record lookup: outcome of this test for Cc1cnc(-c2cc(N3CCN(C(=O)CCS(C)(=O)=O)CC3)ncc2Cl)c(C)c1 ?
Outgoing: inactive

Incoming: Record lookup: outcome of this test for Cc1ccc(S(=O)(=O)Nc2nc3ccccc3nc2Nc2ccc3nsnc3c2)cc1 ?
Outgoing: active

Incoming: Record lookup: outcome of this test for OC1CCC(Nc2ncc3nc(Nc4c(F)cc(F)cc4F)n([C@@H]4CCOC4)c3n2)CC1 (stereo partly specified) ?
Outgoing: active
